TEST_DESCRIPTION: Solubility point in citrate buffer
Type: physicochemical
CONDITION_SET: aqueous buffer; 1× citrate buffer (20 mM sodium citrate, 100 mM sodium chloride pH 7.4)
RECORDED_METRIC: solubility (mM)
Give bare numbers, in mM.

Asked: Recorded solubility for Cc1cc(-c2ccc(/N=N/c3c(S(=O)(=O)O)cc4cc(S(=O)(=O)O)cc(N)c4c3O)c(C)c2)ccc1/N=N/c1c(S(=O)(=O)O)cc2cc(S(=O)(=O)O)cc(N)c2c1O , please?
Given back: 4.58

====

MEASURED_TARGET: fibrinogen (Evicel) (Homo sapiens, UniProt P02671+P02675+P02679)
Construct: purchased Ethicon (Evicel Biologically Active Component 2)
Sequence (P02671 20-629 limits assumed): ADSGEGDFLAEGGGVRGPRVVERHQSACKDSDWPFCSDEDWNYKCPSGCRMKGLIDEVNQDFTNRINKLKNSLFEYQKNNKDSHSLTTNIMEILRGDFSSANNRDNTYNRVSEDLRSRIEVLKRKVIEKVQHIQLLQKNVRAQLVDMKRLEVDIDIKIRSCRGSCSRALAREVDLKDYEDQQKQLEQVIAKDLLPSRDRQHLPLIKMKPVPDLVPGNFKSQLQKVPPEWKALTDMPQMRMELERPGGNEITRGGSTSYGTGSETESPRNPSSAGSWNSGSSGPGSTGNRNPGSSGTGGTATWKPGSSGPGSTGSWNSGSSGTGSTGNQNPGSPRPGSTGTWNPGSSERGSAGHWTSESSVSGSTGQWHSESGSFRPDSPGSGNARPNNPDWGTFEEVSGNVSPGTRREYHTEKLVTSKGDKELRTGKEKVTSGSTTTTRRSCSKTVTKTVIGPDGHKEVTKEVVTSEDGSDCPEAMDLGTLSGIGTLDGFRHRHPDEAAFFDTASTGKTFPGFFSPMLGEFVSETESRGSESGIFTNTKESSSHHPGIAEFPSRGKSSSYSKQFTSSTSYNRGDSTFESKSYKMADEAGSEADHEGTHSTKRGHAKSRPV
Sequence (P02675 31-491): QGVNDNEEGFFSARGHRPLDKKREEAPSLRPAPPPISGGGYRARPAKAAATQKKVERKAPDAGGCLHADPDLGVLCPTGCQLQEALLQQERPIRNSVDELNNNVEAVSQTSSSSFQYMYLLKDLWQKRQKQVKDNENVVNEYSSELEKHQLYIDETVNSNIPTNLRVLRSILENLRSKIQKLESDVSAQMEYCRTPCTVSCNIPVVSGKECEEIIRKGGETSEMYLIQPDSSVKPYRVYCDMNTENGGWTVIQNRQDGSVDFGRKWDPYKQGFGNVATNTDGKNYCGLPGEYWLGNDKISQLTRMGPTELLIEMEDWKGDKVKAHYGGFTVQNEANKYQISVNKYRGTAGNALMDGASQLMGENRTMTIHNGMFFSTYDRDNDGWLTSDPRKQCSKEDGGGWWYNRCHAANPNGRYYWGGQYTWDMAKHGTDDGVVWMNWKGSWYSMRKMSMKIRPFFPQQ
Sequence (P02679 27-433 limits assumed): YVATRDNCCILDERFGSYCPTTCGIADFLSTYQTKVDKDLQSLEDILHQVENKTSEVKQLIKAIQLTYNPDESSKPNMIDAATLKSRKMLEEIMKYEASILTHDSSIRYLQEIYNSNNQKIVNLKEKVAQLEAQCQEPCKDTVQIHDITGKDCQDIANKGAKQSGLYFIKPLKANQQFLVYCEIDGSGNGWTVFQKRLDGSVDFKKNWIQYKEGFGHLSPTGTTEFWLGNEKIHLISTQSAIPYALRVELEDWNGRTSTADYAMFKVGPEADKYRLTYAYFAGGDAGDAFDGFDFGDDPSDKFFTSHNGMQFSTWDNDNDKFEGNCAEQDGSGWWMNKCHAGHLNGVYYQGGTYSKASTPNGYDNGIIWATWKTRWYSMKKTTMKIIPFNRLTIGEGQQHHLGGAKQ
TEST_DESCRIPTION: Fibrinogen clotting assay with coagulation analyzer (Clauss method), tissue glue fibrinogen
Type: biochemical
CONDITION_SET: 4.58 mM additive in PBS, fixed 1:20 dilution of fibrinogen (Evicel), n=10
RECORDED_METRIC: gelation time (average clotting time) (s)
Answers are plain numbers, in s.

Completed entries (count: 2):
INSERT INTO results (compound, measured_target, val) VALUES
  ('Cc1cc(-c2ccc(/N=N/c3c(S(=O)(=O)O)cc4cc(S(=O)(=O)O)cc(N)c4c3O)c(C)c2)ccc1/N=N/c1c(S(=O)(=O)O)cc2cc(S(=O)(=O)O)cc(N)c2c1O [TB, Trypan Blue]', 'fibrinogen (Evicel) (Homo sapiens, UniProt P02671+P02675+P02679)', 46.3),
  ('O=C([O-])c1ccccc1-c1c2ccc(=O)cc-2oc2cc([O-])ccc12.[Na+].[Na+] [SF, Sodium Fluorescein, reference compound]', 'fibrinogen (Evicel) (Homo sapiens, UniProt P02671+P02675+P02679)', 18.5);

Next:
Asked: Entry Cc1cc(N=Nc2ccc(C)c(N=Nc3cc(C)c(N)cc3N)c2)c(N)cc1N.Cl.Cl [BBr, Bismarck Brown R, reference compound] has what gelation time (average clotting time)?
Given back: 18.9

====

MEASURED_TARGET: fibrinogen (Evicel) (Homo sapiens, UniProt P02671+P02675+P02679)
Construct: purchased Ethicon (Evicel Biologically Active Component 2)
TEST_DESCRIPTION: Fibrinogen clotting assay with coagulation analyzer (Clauss method), tissue glue fibrinogen
Format: biochemical
CONDITION_SET: screen, multiple concentrations up to 4.58 mM
RECORDED_METRIC: Effect on Clotting Time

INSERT INTO measurements (molecule, measured_target, val) VALUES
  ('Cc1cc(N=Nc2ccc(C)c(N=Nc3cc(C)c(N)cc3N)c2)c(N)cc1N.Cl.Cl [BBr, Bismarck Brown R, reference compound]', 'fibrinogen (Evicel) (Homo sapiens, UniProt P02671+P02675+P02679)', 'No effect'),
  ('Cc1cc(-c2ccc(/N=N/c3c(S(=O)(=O)O)cc4cc(S(=O)(=O)O)cc(N)c4c3O)c(C)c2)ccc1/N=N/c1c(S(=O)(=O)O)cc2cc(S(=O)(=O)O)cc(N)c2c1O', 'fibrinogen (Evicel) (Homo sapiens, UniProt P02671+P02675+P02679)', 'Increase'),
  ('Cc1cc(-c2ccc(/N=N/c3ccc4c(S(=O)(=O)O)cc(S(=O)(=O)O)c(N)c4c3O)c(C)c2)ccc1/N=N/c1ccc2c(S(=O)(=O)O)cc(S(=O)(=O)O)c(N)c2c1O', 'fibrinogen (Evicel) (Homo sapiens, UniProt P02671+P02675+P02679)', 'Increase'),
  ('O=C([O-])c1ccccc1-c1c2ccc(=O)cc-2oc2cc([O-])ccc12.[Na+].[Na+] [SF, Sodium Fluorescein, reference compound]', 'fibrinogen (Evicel) (Homo sapiens, UniProt P02671+P02675+P02679)', 'No effect');
